Assay: Cmax in mouse at 25 mg/kg, iv and measured upto 24 hrs
Assay type: ADME, organism-based
Set-up: dose 25 mg/kg, time < 24 hrs, route iv
Conditions: in vivo
recordedMetric: Cmax (ng/mL)
State just the number; it will be interpreted in ng/mL.

In plain terms, CN1CCN(C(=O)c2ccc(-c3nn4c(-c5ccc(C#N)cc5)cnc4s3)cc2)CC1 has a documented Cmax of 32100

---

Test: Cmax in mouse at 50 mg/kg, po and measured upto 24 hrs
Assay type: ADME, organism-based
Design: dose 50 mg/kg, time < 24 hrs, route po
Conditions: in vivo
recordedMetric: Cmax (ng/mL)
State just the number; it will be interpreted in ng/mL.

In plain terms, CN1CCN(C(=O)c2ccc(-c3nn4c(-c5ccc(C#N)cc5)cnc4s3)cc2)CC1 has a documented Cmax of 17200
